target: COUP transcription factor 2 (Homo sapiens, UniProt P24468); assay: Luminescence-based cell-based high throughput dose response assay to identify inhibitors of COUP-TFII (NR2F2).; assay type: functional;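 also: HEK293 cells transiently cotransfected with COUP-TFII expression vector and reporter; luciferase reporter luminescence driven by COUP-TFII from the pX2-168 reporter plasmid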
Sequence (P24468 whole entry): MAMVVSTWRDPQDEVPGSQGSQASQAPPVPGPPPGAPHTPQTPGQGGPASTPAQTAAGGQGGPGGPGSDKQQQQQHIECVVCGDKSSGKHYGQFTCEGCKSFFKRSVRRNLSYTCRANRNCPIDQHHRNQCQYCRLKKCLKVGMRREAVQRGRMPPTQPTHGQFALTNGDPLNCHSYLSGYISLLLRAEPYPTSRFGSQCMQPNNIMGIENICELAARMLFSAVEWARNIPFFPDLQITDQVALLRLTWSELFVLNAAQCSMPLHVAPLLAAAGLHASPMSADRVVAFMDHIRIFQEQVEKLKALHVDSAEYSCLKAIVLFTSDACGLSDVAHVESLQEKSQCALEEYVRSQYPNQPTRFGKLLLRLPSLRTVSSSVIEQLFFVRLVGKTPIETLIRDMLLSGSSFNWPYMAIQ
Calls of active or inactive are those of the source.
Pick one: active, inactive

I would be grateful if you could indicate the recorded call for CCc1cc(C(=O)NC2CCCc3c2cnn3-c2cccc(C)c2C)n(C)n1 (stereo not given) .
active

// param item: CCCCCCn1c(NCC)nc2c1c(=O)n(C)c(=O)n2C ; yields the recorded call
active

What outcome does the record of this test show for Cn1nc(CC(=O)Nc2ccc(N3CCN(C(=O)OC(C)(C)C)CC3)cc2)c2ccccc2c1=O ?
active

Name the outcome recorded for Fc1ccc(CN2CCN(c3ncc(Cc4ccccc4)cn3)CC2)c(Cl)c1 in the assay.
inactive

// return assay outcome for CCN(CC)C(=O)c1oc2ccc(S(=O)(=O)N3CC(C)CC(C)C3)cc2c1C (stereo not given)
active

---

tested on: Streptococcus sp. 'group A'; test: Streptococcus pyogenes SK(-)GAS viability under kanamycin – luminescence, BacTiterGlo, confirmation, counter-screen for streptokinase expression inhibitor project, dose response (AID 1900); type: functional, organism-based
Activity calls are given as the source filed them.
outcomeMeasure: EC50

Previously resolved entries follow.
> print(dat)
                                   compound                 targetentity          reportedvalue
1  Cc1noc(C)c1-c1nnc(-c2ccc(OC(F)(F)F)cc2)o1  Streptococcus sp. 'group A'  > 150 µM (not active)
2  O=C(O)c1ccc(S(=O)(=O)/N=C2\C=C(Nc3ccccc3F)C(=O)c3ccccc32)cc1  Streptococcus sp. 'group A'       5.74 µM (active)
3  CN(C)CCCn1c(SCC(=O)Nc2nc(-c3cccc(Br)c3)cs2)nc2ccccc2c1=O  Streptococcus sp. 'group A'       3.17 µM (active)
4  Cc1[nH]n(-c2ccccc2)c(=O)c1/C=C1/C(=O)NN(c2ccc(F)c(Cl)c2)C1=O  Streptococcus sp. 'group A'       4.06 µM (active)
5              O=C1C=CC(=NNc2ccccc2)C=CC1=O  Streptococcus sp. 'group A'       2.86 µM (active)

State recorded EC50 for all listed compounds.
1. CCOC(=O)Cc1c(C)nc2c(-c3cccc(Br)c3)cnn2c1O
2. O=C(Nc1cccc(C(F)(F)F)c1)Oc1ccc(Cl)c2cccnc12
3. OC(C/N=c1\sc2ccccc2n1CC(O)COc1ccccc1)COc1ccccc1 (stereo not given)
4. CCCN(CCC)S(=O)(=O)c1ccc(C(=O)Nc2nnc(COC)o2)cc1

["3.46 µM (active)", "2.54 µM (active)", "8.85 µM (active)", "5.99 µM (active)"]

Find EC50 (Streptococcus sp. 'group A') for the entry CCOC(=O)c1sc(N2C(=O)C(O)=C(C(=O)c3ccco3)C2c2cccc(Cl)c2)nc1C (stereo not given)
7.41 µM (active)

---

molecular target: Genome polyprotein (dengue virus type 2); assay: flavivirus cap methylation enzyme inhibition – biochemical, confirmation dose response, primary screen (AID 588689); format: functional
Active and inactive are the calls of the source.
For each of the compounds below, state its IC50.

Reference set, count: 3
> print(dat)
                              cpdsmiles      reportedvalue
1         O=C1CNC(=O)/C1=C/c1ccc(Br)cc1  > 100 µM (active)
2          O=C1C=CC(=NNc2ccccc2)C=CC1=O   91.2 µM (active)
3  O=C1NC(=O)C(=Cc2c(Cl)cccc2Cl)C(=O)N1   43.4 µM (active)

Batch lookup, IC50 per entry.
1. Cc1ccc(N2C(=O)C(Cl)=C(N3CCOCC3)C2=O)cc1Cl
2. O=C1CCNc2cc3ccccc3cc21
3. CCc1ccc(Nc2ccc(C(=O)O)cc2[N+](=O)[O-])cc1
4. O=Cc1cc(N=Nc2cccc(C(=O)O)c2)ccc1O

1. 34.7 µM (active)
2. > 100 µM (active)
3. > 100 µM (active)
4. 99.6 µM (active)
